# Test system: 171881-019-R-J1-PDC tumor spheroid viability;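 note: spheroids exposed to compound for 7 days before viability read; 100% = DMSO vehicle-treated spheroids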
# Assay overview: Anticancer human tumor 171881-019-R-J1-PDC patient-derived invasive breast carcinoma cell line growth inhibition [PI3K]
# Condition: second compound 0.0316 µM; first compound 10 µM; hits give low values; spheroids with HUVEC and MSC
Known viability, T/C of a selection of compounds
Readout name: viability, T/C (%)

{"columns": ["Compound", "Readout name", "Data value"],
 "data": [
  ["Cn1ncc(Cl)c1-c1cc(C(=O)NC(CN)Cc2cccc(F)c2)sc1Cl (stereo not drawn) + CC(Nc1ccc2c(c1)OCCn1cc(N3C(=O)OCC3C(F)F)nc1-2)C(N)=O", "viability, T/C", 4.17],
  ["C=CC(=O)N1CCN(c2nc(=O)n(-c3c(C)ccnc3C(C)C)c3nc(-c4c(O)cccc4F)c(F)cc23)C(C)C1 (stereo not drawn) + CC(Nc1ccc2c(c1)OCCn1cc(N3C(=O)OCC3C(F)F)nc1-2)C(N)=O", "viability, T/C", 31.7],
  ["C[C@@H](NC(=O)c1ncnc(N)c1Cl)c1ncc(C(=O)Nc2cc(C(F)(F)F)c(Cl)cn2)s1 + COc1c(OCCCN2CCOCC2)ccc2c3n(c(=NC(=O)c4cnc(N)nc4)nc12)CCN3", "viability, T/C", 7.51]
]}
